- experiment: binders of probe aFSTL3 on microarray, primary screen, stem cell growth factor project, biochemical, small-molecule microarray, fluorescence 635/667 (AID 1064);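 further: measures binding of the biotinylated anti-FSTL3 antibody to printed compounds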
- experimental setup: higher = more signal
property label: composite z-score

| structure smiles string | numeric readout |
| --- | --- |
| COc1cc2c(cc1OC)CN(C(=O)[C@@H]1[C@H]3C(=O)O[C@H](c4ccccc4)[C@H](c4ccccc4)N3[C@H](c3ccccc3OCCO)[C@@]13C(=O)Nc1ccccc13)CC2 | -1.08 |
| CCOC(=O)C[C@H]1[C@H](OC(=O)Cc2ccc3c(c2)OCO3)[C@@H](NC(=O)c2ccc3ccccc3c2)c2cc(OCCCO)ccc2N1C(=O)Cc1ccc(OC)cc1 | -0.0089 |
| CCN1C(C)=C(C(=O)OC)[C@@H](c2ccccc2)N2C(=O)[C@](O)(C(=O)OC)[C@@H](c3ccccc3)C(C(=O)c3ccccc3)=C12 | -0.14 |

---

- experiment: compound binding in COS7 lysate, probe aLAP1, primary screen, cell lysate, small-molecule microarray (AID 1124);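 further: lysate comes from COS7 cells expressing LAP1 and is applied at 0.3 µg/mL; score merges spot fluorescence near 667 nm with signal-to-noise over triplicate slides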
- experimental setup: probe aLAP1, fluorescence, higher = more signal
Reported composite z-score by item:

| compound | composite z-score |
| --- | --- |
| CO[C@@H]1COC(=O)CC=C[C@H](C)COC(=O)[C@H](Cc2ccccc2)NC(=O)CC=C[C@H]1C | 0.0055 |
| COc1ccc(C(=O)Nc2ccc(CN3C(=O)[C@]4(O[C@H](CCn5cc(CCO)nn5)[C@@H]([Si](C)(C)c5ccc(OC)cc5)[C@@H]4C)c4ccccc43)cc2)cc1 | -0.153 |
| CCOC(=O)C[C@H]1[C@H](OC(=O)c2ccccc2-c2ccccc2)[C@@H](NC(=O)C2CCCCC2)c2cc(OCCCO)ccc2N1C(=O)c1ccccc1 | -0.175 |
| C[C@@H]1CC[C@H]2C(=O)N3[C@@H](CC[C@@H](C)[C@@H]3c3cccc(N4CCOCC4)c3)C(=O)N2[C@H]1c1cccc(N2CCOCC2)c1 | 0.581 |
| CCOC(=O)C[C@H]1[C@H](OC(=O)c2ccccc2-c2ccccc2)[C@@H](NC(=O)c2ccc(-c3ccccc3)cc2)c2cc(OCCCO)ccc2N1C(=O)Cc1ccc(OC)cc1 | -0.0563 |
| CCOC(=O)C[C@H]1[C@H](OC(=O)c2cc3ccccc3oc2=O)[C@@H](NC(=O)c2ccc3ccccc3c2)c2cc(OCCCO)ccc2N1C(=O)c1ccc2ccccc2n1 | 0.155 |
| NC(=O)NCC#Cc1ccc2c(c1)[C@]1(C(=O)N2)[C@H](C(N)=O)[C@H]2C(=O)O[C@H](c3ccccc3)[C@H](c3ccccc3)N2[C@@H]1c1ccccc1OCCO | 0.519 |
| CN(C)C(=O)[C@@]1(Cc2ccccc2N=[N+]=[N-])N=C(c2ccc(OCCCO)cc2)O[C@H]1c1ccccc1CN=[N+]=[N-] | 1.12 |
| C=C[C@H](OC)[C@@H](OC(=O)Nc1ccc(SC)cc1)c1ccc(OC)c(O)c1 | -0.245 |
| CC[C@@H]1C=C(C(=O)O)[C@H](c2ccccc2)N1S(=O)(=O)c1ccc([N+](=O)[O-])cc1 | 0.612 |
| Cc1ccc(S(=O)(=O)N2[C@@H](c3ccccc3)C(C(=O)O)=CC[C@H]2c2ccccc2)cc1 | 0.498 |
| C=CC[C@]1(C(=O)O)N=C(c2ccc(OCCCO)cc2)O[C@H]1c1ccccc1N=[N+]=[N-] | 1.24 |
| CO[C@H]1COC(=O)[C@H](Cc2ccccc2)NC(=O)CC=C[C@@H](C)[C@H](OC)COC(=O)CC=C[C@@H]1C | -0.47 |
| COCCOC(=O)N1C(=O)[C@@]2(c3cc(C#CC4(O)CCCCCC4)ccc31)[C@H](C(=O)N1CCCCCCC1)[C@H]1C(=O)O[C@H](c3ccccc3)[C@H](c3ccccc3)N1[C@@H]2c1ccc(O)cc1 | -0.139 |
| Cc1ccc(S[C@]2(C(=O)NCCN3CCOCC3)CC(=O)N(C3Cc4ccccc4C3)[C@@H]2c2ccc(CO)cc2I)cc1 | 0.39 |
| CN1CCC(CCCO)=CC1C1CC1 (stereo unspecified) | -0.569 |

---

- experiment: binders of probe aFSTL3 on microarray, primary screen, stem cell growth factor project, biochemical, small-molecule microarray, fluorescence 635/667 (AID 1064);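 further: measures binding of the biotinylated anti-FSTL3 antibody to printed compounds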
- experimental setup: higher = more signal
Label rule, in plain words: composite z-score of -0.06 and up is Yes, under -0.06 is No.

| molecule | category |
| --- | --- |
| CCCCCCc1nc(C2CC2)c(C)c2c1[Si](C(C)C)(C(C)C)OC2 | Yes |
| C[N+](C)(C)CCCCNC(=O)[C@@H]1C[C@@H]2C(=O)N3CCC[C@H]3C(=O)N2[C@@H]1c1cccc(OCCO)c1 | No |
| COCCOC(=O)N1C(=O)[C@@]2(c3cc(C#CCC(C(=O)OC)C(=O)OC)ccc31)[C@H](C(=O)N1CCN(c3ncccn3)CC1)[C@H]1C(=O)O[C@H](c3ccccc3)[C@H](c3ccccc3)N1[C@@H]2c1ccc(O)cc1 | No |
| O=C1OCC=C[C@H]2OC34C=CCN(Cc5ccccc5)C(=O)[C@H]3N(CCO)C(=O)[C@@H]4[C@@H]12 (some centres not stated) | Yes |
| O=C1OCCC/C=C\[C@H]2OC34C=CCN(CCN5CCOCC5)C(=O)[C@H]3N(CCCCCO)C(=O)[C@@H]4C12 (some centres not stated) | No |
| O=C1C2C=CC(C(O)c3ccccc3)N(n3cnnc3)C2C(=O)N1Cc1ccccc1 (configuration not stated) | Yes |
| C[C@H]1COC(=O)[C@@H]2CCCN2C(=O)[C@@H](C)COC(=O)[C@@H]2CCCN2C1=O | No |

---

- measured on: E3 ubiquitin-protein ligase XIAP (Homo sapiens)
- experiment: XIAP binders, primary screen, biophysical, small-molecule microarray, fluorescence 635 nm (AID 1181);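 further: score merges 667 nm emission and signal to noise over triplicate slides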
- experimental setup: small-molecule microarray binding, higher = more signal
In this scheme, each record receives a class according to its composite z-score; the ranges are band A = under -0.1, band B = from -0.1 up to 0.09, band C = 0.09 and over

| compound | category |
| --- | --- |
| CCOC(=O)C1=CCC(c2cccc3ccccc23)N(S(=O)(=O)c2ccc(C)cc2)C1 (stereo unspecified) | band C |
| C=C(C(=O)CC[C@H](OC(=O)c1ccccc1-c1ccccc1C(=O)O)c1ccc(CO)o1)C(C)C | band A |
| Cc1cc(C)c(C(O)C2C=CC3C(=O)N(C)C(=O)C3N2N2CCCCC2)c(C)c1 (stereo unspecified) | band C |
| CN(C)CCCC[C@@H]1NC(=O)[C@@H]2C[C@H](C(=O)NCCCCCNC(=O)CS)[C@H](c3ccc(O)cc3)N2C1=O | band C |
| COC(=O)Cn1c(C(=O)N2CCCC2)cc2c1C[C@H]1CN(C(=O)c3ccccc3)[C@@](Cc3ccccc3)(C(=O)OC)[C@@H]21 | band C |
| COC(=O)[C@H]1[C@@H]2COc3ccccc3[C@H]2N[C@H]1C(=O)OC | band B |
| C#CCCCON=C1C[C@@H](O)[C@@H](O)[C@@H]2[C@@H]3C(=O)N(Cc4ccc5c(c4)OCO5)C(=O)[C@@H]3CC[C@@H]12 | band B |
| CCN1C(C)=C(C(=O)OC)[C@@H](c2ccccc2)N2C(=O)[C@@]3(C(=O)OC)O[C@@]12[C@@H]1C(=O)N(C)C(=O)[C@@H]13 | band B |
| CCC1=C2CN(Cc3ccccc3Br)[C@@H]([C@@H](O)Cc3ccccc3)C2C=CCC1 (stereo partly specified) | band B |
| CO[C@H]1COC(=O)CC=C[C@H](C)[C@@H](OC)COC(=O)CC=C[C@@H]1C | band A |
| C=CCNC(=O)[C@H]1[C@@H]2C(=O)O[C@@H](c3ccccc3)[C@@H](c3ccccc3)N2[C@@H](c2ccccc2OCCO)[C@]12C(=O)N(C(=O)OCCOC)c1ccc(C#CCNC(N)=O)cc12 | band A |
| CCCCCCc1nc(C2CC2)c(C)c2c1[Si](C(C)C)(C(C)C)OC2 | band C |
| O=C1C2C=CC(C(O)C#Cc3ccccc3)N(Nc3ccccc3)C2C(=O)N1c1ccccc1 (stereo unspecified) | band A |
| CC(C)=C1C(=O)C(c2ccccc2)=C2CN3C(=O)N(CCc4ccccc4)C(=O)[C@]3(Cc3ccccc3)[C@H]21 | band A |
| C=CCC(OC(C)=O)[C@@H]1[C@@H](N(Cc2cc3ccccc3o2)C(=O)Cc2ccc(F)cc2)c2cc(OCCCO)ccc2N1C(=O)c1ccc(-c2ccccc2)cc1 (stereo partly specified) | band A |

---

Reported z-score by item:
- experiment: inhibitors of hydroxyurea-induced Chk1 phosphorylation, primary screen, imaging, HeLa, phospho-Chk1 nuclear intensity (AID 1187); further: test concentration not given here
- experimental setup: hydroxyurea-induced phospho-Chk1 immunofluorescence imaging, higher = more signal

| molecule | z-score |
| --- | --- |
| CC(=O)NCCCC[C@@H]1NC(=O)[C@H]2C[C@@H](C(=O)NCCCCCCN(C)C)[C@@H](c3cccc(OCCO)c3)N2C1=O | 0.733 |
| CN(C)CCCC[C@@H]1NC(=O)[C@@H]2C[C@H](C(=O)O)[C@H](c3ccc(O)cc3)N2C1=O | 0.448 |
| CN1C(=O)C2C=CC(C(O)C3CC=CCC3)N(Nc3ccccc3)C2C1=O (stereo not drawn) | 0.25 |
| CCCNC(=O)[C@@]1(Sc2ccc(C)cc2)CC(=O)N(Cc2ccccc2Cl)[C@@H]1c1ccc(CO)cc1 | -0.365 |
| COc1cc2c(cc1OC)CN(C(=O)[C@H]1[C@@H]3C(=O)O[C@@H](c4ccccc4)[C@@H](c4ccccc4)N3[C@@H](c3ccc(O)cc3)[C@]13C(=O)Nc1ccc(C#CC4(O)CCCCCC4)cc13)CC2 | 0.0808 |
| C=CC[C@@]1(C(=O)N2CCOCC2)N=C(c2ccc(OCCCO)cc2)O[C@@H]1c1ccccc1 | -0.241 |
| CCC1=C2CN(Cc3ccccc3Br)[C@@H]([C@@H](O)Cc3ccccc3)C2C=CCC1 (stereo partly drawn) | -0.311 |
| Cc1ccc(S[C@]2(C(=O)NCCCN(C)C)CC(=O)N(Cc3ccccc3)[C@@H]2c2ccc(CO)cc2I)cc1 | 0.637 |

The origin of these recorded values is PubChem BioAssay.
